Target: recombinant human MMP-8 (Homo sapiens, UniProt P22894)
Sequence (P22894 101-467): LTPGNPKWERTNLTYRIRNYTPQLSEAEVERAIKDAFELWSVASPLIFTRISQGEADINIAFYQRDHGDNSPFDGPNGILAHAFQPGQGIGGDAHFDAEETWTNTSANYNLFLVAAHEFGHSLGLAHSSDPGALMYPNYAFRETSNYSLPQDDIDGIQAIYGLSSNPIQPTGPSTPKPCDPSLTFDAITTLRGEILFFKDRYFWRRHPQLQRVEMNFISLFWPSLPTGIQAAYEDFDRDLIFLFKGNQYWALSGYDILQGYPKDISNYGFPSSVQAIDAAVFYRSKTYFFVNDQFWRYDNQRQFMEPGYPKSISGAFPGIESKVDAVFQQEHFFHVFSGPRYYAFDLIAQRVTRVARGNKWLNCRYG
Assay: In-vitro fluorescence assay of MMP-8 activity
pIC50: −log10 of the molar value.
Observed property: pIC50

The following molecules have reported results that may help.
Recall the recorded pIC50 for Cc1cc(COc2ccc(S(=O)(=O)N[C@H]3COC[C@H]3C(=O)NO)cc2)c2ccccc2n1 (stereo in doubt) with recombinant human MMP-8 (Homo sapiens, UniProt P22894) and state it.
< 4.78

Recall the recorded pIC50 for Cc1cc(COc2ccc(S(=O)(=O)N[C@@H]3CCC[C@@H]3C(=O)NO)cc2)c2ccccc2n1 with recombinant human MMP-8 (Homo sapiens, UniProt P22894) and state it.
< 4.78

// switching to the query molecule
Recall the recorded pIC50 for Cc1cc(COc2ccc(S(=O)(=O)N[C@@H]3CN(C(=O)NC(C)(C)C)CC[C@@H]3C(=O)NO)cc2)c2ccccc2n1 with recombinant human MMP-8 (Homo sapiens, UniProt P22894) and state it.
< 4.78

###

Each record here notes measured pIC50.
Target: TACE (catalytic domain of the recombinant TACE protein) (Homo sapiens, UniProt P78536)
Construct: The catalytic domain of the recombinant TACE protein was expressed and purified; made in house
Sequence (P78536 223-474 limits assumed): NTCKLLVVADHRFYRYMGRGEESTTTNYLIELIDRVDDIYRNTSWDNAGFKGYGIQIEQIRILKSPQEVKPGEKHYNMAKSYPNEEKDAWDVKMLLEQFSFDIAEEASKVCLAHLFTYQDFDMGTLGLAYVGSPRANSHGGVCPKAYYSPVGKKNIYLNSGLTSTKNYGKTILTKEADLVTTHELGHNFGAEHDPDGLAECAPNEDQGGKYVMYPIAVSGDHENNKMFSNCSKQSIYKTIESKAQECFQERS
Assay: TACE FRET assay using TACE Cat
Assay type: biochemical
Conditions: FRET, pro-TNF-α substrate peptide; read-out: TACE IC50
pIC50: −log10 of the molar value.

For the compound Cc1cc(COc2ccc(S(=O)(=O)N(C)[C@@H]3CCC[C@@H]3C(=O)NO)cc2)c2ccccc2n1 (relative stereo) [Example 16] , what pIC50 is on record?
> 9.22

For the compound CC(=O)N1C[C@H](C(=O)NO)[C@H](NS(=O)(=O)c2ccc(OCc3cc(C)nc4ccccc34)cc2)C1 (relative stereo) [Example 19] , what pIC50 is on record?
> 9.22

***
For the compound CNC(=O)N1CC[C@@H](NS(=O)(=O)c2ccc(OCc3cc(C)nc4ccccc34)cc2)[C@@](C)(C(=O)NO)C1 [Example 50] , what pIC50 is on record?
8.43

###

Measured IC50 on MMP-13 (Homo sapiens) follows.

For the molecule Cc1cc(COc2ccc(S(=O)(=O)N(C)[C@H]3[C@@H](C(=O)NO)[C@H]4C=C[C@@H]3C4)cc2)c2ccccc2n1 (relative stereo) [Example 8] , what IC50 is on record?
> 16.7 µM

For the molecule Cc1cc(COc2ccc(S(=O)(=O)N[C@@H]3CN(C(=O)NC(C)(C)C)CC[C@@H]3C(=O)NO)cc2)c2ccccc2n1 [Example 35] , what IC50 is on record?
> 16.7 µM

For the molecule Cc1cc(COc2ccc(S(=O)(=O)N[C@H]3[C@@H](C(=O)NO)[C@@H]4CC[C@H]3O4)cc2)c2ccccc2n1 (relative stereo) [Example 2] , what IC50 is on record?
> 16.7 µM

For the molecule Cc1cc(COc2ccc(S(=O)(=O)N[C@@H]3CCC[C@]3(O)C(=O)NO)cc2)c2ccccc2n1 [Example 53] , what IC50 is on record?
> 16.7 µM

For the molecule Cc1cc(COc2ccc(S(=O)(=O)N[C@H]3COC[C@H]3C(=O)NO)cc2)c2ccccc2n1 (stereo in doubt) [Example 26] , what IC50 is on record?
> 16.7 µM

For the molecule Cc1cc(COc2ccc(S(=O)(=O)N[C@@H]3CN(C(=O)OC(C)(C)C)C[C@@H]3C(=O)NO)cc2)c2ccccc2n1 (relative stereo) [Example 21] , what IC50 is on record?
4.89 µM

For the molecule Cc1cc(COc2ccc(S(=O)(=O)N[C@@H]3CC=CC[C@@H]3C(=O)NO)cc2)c2ccccc2n1 (relative stereo) [Example 10] , what IC50 is on record?
> 16.7 µM

For the molecule Cc1cc(COc2ccc(S(=O)(=O)N(C)[C@H]3CCCC[C@@H]3C(=O)NO)cc2)c2ccccc2n1 (relative stereo) [Example 61] , what IC50 is on record?
> 16.7 µM

For the molecule CC(=O)N1CCC(C(=O)NO)C(NS(=O)(=O)c2ccc(OCc3cc(C)nc4ccccc34)cc2)C1 (mixture of isomers) [Example 36] , what IC50 is on record?
> 16.7 µM

For the molecule Cc1cc(COc2ccc(S(=O)(=O)N(C)C3C4CCC(C4)C3C(=O)NO)cc2)c2ccccc2n1 (single isomer, unassigned) [Example 1b] , what IC50 is on record?
> 16.7 µM

***
For the molecule Cc1cc(COc2ccc(S(=O)(=O)NC3C4CCC(N4)C3C(=O)NO)cc2)c2ccccc2n1 (centres unmarked) [Example 38] , what IC50 is on record?
> 16.7 µM

For the molecule Cc1cc(COc2ccc(S(=O)(=O)N[C@@H]3[C@H]4CC[C@H](C4)[C@@H]3C(=O)NO)cc2)c2ccccc2n1 (relative stereo) [Example 4] , what IC50 is on record?
6.38 µM

For the molecule Cc1cc(COc2ccc(S(=O)(=O)N[C@@H]3CCC[C@]3(F)C(=O)NO)cc2)c2ccccc2n1 [Example 54] , what IC50 is on record?
> 10 µM

For the molecule Cc1cc(COc2ccc(S(=O)(=O)N[C@@H]3CCCC[C@@H]3C(=O)NO)cc2)c2ccccc2n1 (relative stereo) [Example 12] , what IC50 is on record?
> 16.7 µM

###

Molecular target: TACE (catalytic domain of the recombinant TACE protein) (Homo sapiens)
Construct: The catalytic domain of the recombinant TACE protein was expressed and purified; made in house
Assay: TACE FRET assay using TACE Cat
Type: biochemical
Conditions: FRET, pro-TNF-α substrate peptide; read-out: TACE IC50
Observed property: IC50 (nM)

Recall the recorded IC50 for Cc1cc(COc2ccc(S(=O)(=O)N(C)[C@@H]3CCOCC3C(=O)NO)cc2)c2ccccc2n1 (stereo in doubt) with TACE (catalytic domain of the recombinant TACE protein) (Homo sapiens) and state it.
7.9

Recall the recorded IC50 for Cc1cc(COc2ccc(S(=O)(=O)N[C@@H]3CCN(C(C)C)C[C@]3(C)C(=O)NO)cc2)c2ccccc2n1 with TACE (catalytic domain of the recombinant TACE protein) (Homo sapiens) and state it.
211

Recall the recorded IC50 for CC(=O)N1CCC(C(=O)NO)C(NS(=O)(=O)c2ccc(OCc3cc(C)nc4ccccc34)cc2)C1 (mixture of isomers) with TACE (catalytic domain of the recombinant TACE protein) (Homo sapiens) and state it.
1.3

Recall the recorded IC50 for Cc1cc(COc2ccc(S(=O)(=O)N(C)[C@@H]3[C@H]4CC[C@H](C4)[C@@H]3C(=O)NO)cc2)c2ccccc2n1 (racemic) with TACE (catalytic domain of the recombinant TACE protein) (Homo sapiens) and state it.
2

a. Cc1cc(COc2ccc(S(=O)(=O)N(C)[C@@H]3CC=CC[C@@H]3C(=O)NO)cc2)c2ccccc2n1 (relative stereo)
b. Cc1cc(COc2ccc(S(=O)(=O)N[C@@H]3CCN(C=O)C[C@@H]3C(=O)NO)cc2)c2ccccc2n1
In terms of reported IC50, does a or b have the smaller number? Answer with the label corresponding to your selection.
b

###

Target: recombinant human MMP-2 (Homo sapiens, UniProt P08253)
Assay: In-vitro fluorescence assay of MMP-2 activity
Structures can show the parent of a compound that is named as a salt.
Observed property: IC50

For the compound CC(=O)N1CCC(NS(=O)(=O)c2ccc(OCc3cc(C)nc4ccccc34)cc2)C(C(=O)NO)C1 (mixture of isomers) , what IC50 is on record?
> 10 µM

For the compound Cc1cc(COc2ccc(S(=O)(=O)N(C)[C@@H]3[C@H]4CC[C@H](C4)[C@@H]3C(=O)NO)cc2)c2ccccc2n1 (racemic) , what IC50 is on record?
6.18 µM

***
For the compound Cc1cc(COc2ccc(S(=O)(=O)N(C)C3C4CCC(C4)C3C(=O)NO)cc2)c2ccccc2n1 (single isomer, unassigned) [Example 1a] , what IC50 is on record?
4.58 µM

For the compound Cc1cc(COc2ccc(S(=O)(=O)N[C@@H]3CCN(C=O)C[C@]3(O)C(=O)NO)cc2)c2ccccc2n1 [Example 46, trifluoroacetic acid salt] , what IC50 is on record?
> 16.7 µM

For the compound Cc1cc(COc2ccc(S(=O)(=O)N[C@@H]3CCC[C@]3(O)C(=O)NO)cc2)c2ccccc2n1 , what IC50 is on record?
> 16.7 µM

###

Each record here notes measured IC50.
Target: recombinant human MMP-2 (Homo sapiens)
Sequence (P08253 110-660): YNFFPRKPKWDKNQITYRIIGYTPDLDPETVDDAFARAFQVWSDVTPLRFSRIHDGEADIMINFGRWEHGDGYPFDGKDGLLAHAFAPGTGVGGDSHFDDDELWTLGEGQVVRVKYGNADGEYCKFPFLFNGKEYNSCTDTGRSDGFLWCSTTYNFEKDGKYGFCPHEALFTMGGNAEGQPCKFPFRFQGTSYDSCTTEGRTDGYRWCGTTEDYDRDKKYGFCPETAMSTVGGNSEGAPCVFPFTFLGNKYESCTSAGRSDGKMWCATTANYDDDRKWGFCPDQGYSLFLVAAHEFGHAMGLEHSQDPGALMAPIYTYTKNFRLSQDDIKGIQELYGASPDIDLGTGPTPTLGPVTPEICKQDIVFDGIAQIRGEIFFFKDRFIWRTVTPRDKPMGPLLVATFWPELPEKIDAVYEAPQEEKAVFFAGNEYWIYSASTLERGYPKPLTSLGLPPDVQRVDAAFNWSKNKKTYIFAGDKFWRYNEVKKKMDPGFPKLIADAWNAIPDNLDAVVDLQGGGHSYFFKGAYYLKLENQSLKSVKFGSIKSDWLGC
Test: In-vitro fluorescence assay of MMP-2 activity

For the compound Cc1cc(COc2ccc(S(=O)(=O)N[C@@H]3CN(C=O)CCC3C(=O)NO)cc2)c2ccccc2n1 (mixture of isomers) , what IC50 is on record?
> 16.7 µM

For the compound Cc1cc(COc2ccc(S(=O)(=O)NC3C4CCC(N4)C3C(=O)NO)cc2)c2ccccc2n1 (centres unmarked) , what IC50 is on record?
8.68 µM

For the compound Cc1cc(COc2ccc(S(=O)(=O)N[C@@H]3CC=CC[C@@H]3C(=O)NO)cc2)c2ccccc2n1 (relative stereo) , what IC50 is on record?
> 16.7 µM

For the compound Cc1cc(COc2ccc(S(=O)(=O)N[C@@H]3CCN(C=O)C[C@]3(C)C(=O)NO)cc2)c2ccccc2n1 , what IC50 is on record?
> 16.7 µM

For the compound Cc1cc(COc2ccc(S(=O)(=O)N[C@@H]3CCOC[C@@]3(C)C(=O)NO)cc2)c2ccccc2n1 , what IC50 is on record?
> 16.7 µM
